# TARGET_SYSTEM: T1, recombinant human Siglec-8 extracellular domain (ECD) (human, UniProt Q9NYZ4 17-363)
# T1 construct: extracellular domain; also called Siglec-8 ECD; full Siglec-8 ECD
# T1 sequence (Q9NYZ4 17-363): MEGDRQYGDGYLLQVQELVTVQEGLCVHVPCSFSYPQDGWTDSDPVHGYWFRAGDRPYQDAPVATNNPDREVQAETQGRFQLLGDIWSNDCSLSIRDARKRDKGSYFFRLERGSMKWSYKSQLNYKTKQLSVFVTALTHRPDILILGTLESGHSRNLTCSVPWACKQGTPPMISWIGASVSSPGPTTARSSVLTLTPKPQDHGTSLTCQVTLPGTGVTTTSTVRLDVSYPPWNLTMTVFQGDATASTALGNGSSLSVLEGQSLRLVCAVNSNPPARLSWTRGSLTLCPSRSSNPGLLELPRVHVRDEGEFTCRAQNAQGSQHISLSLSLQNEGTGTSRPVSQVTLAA
# TEST: ELISA, coated Siglec-8 ECD
pEC50: −log10 of the molar value.
TEST_READOUT: pEC50

[[record]]
binder = "HGKB (antibody, human IgG1, V domains shown, human IgG1/kappa) VH: EVQLVESGGGLVQPGGSLRLSCAASGFSLTIYGAHWVRQAPGKGLEWVSVIWAGGSTNYNSALMSRFSISKDNSKNTVYLQMNSLRAEDTAVYYCARDGSSPYYYSMEYWGQGTTVTVSS VL: EIILTQSPATLSLSPGERATLSCSATSSVSYMHWFQQKPGQAPRLWIYSTSNLASGVPARFSGSGSGTDYTLTISSLEPEDFAVYYCQQRSSYPFTFGPGTKLDIK"
experimental_result = 9.87

[[record]]
binder = "RHE E-DKE (antibody, human IgG1, V domains shown, human IgG1/kappa) VH: EVQLVESGGGLVQPGGSLRLSCAASGFSLTIYGAHWVRQAPGKGLEWVGVIWAGGSTNYNSALMSRFTISKDNSKNTVYLQMNSLRAEDTAVYYCARDGSSPYYYSMDYWGQGTTVTVSS VL: EIVLTQSPATLSLSPGERATLSCSATSSVSYMHWFQQKPGQAPRLLIYSTSNLASGVPARFSGSGSGTDFTLTISSLEPEDFAVYYCQQRSSYPFTFGPGTKLDIK"
experimental_result = 9.44

[[record]]
binder = "HBKC (antibody, human IgG1, V domains shown, human IgG1/kappa) VH: EVQLVESGGGLVQPGGSLRLSCAVSGFSLTIYGAHWVRQAPGKGLEWLGVIWAGGSTNYNSALMSRLSISKDNSKNTVYLQMNSLRAEDTAVYYCARDGSSPYYYSMEYWGQGTTVTVSS VL: EIILTQSPATLSLSPGERATLSCSATSSVSYMHWFQQKPGQAPRLLIYSTSNLASGIPARFSGSGSGTDFTLTISSLEPEDFAVYYCQQRSSYPFTFGPGTKLDIK"
experimental_result = 10.48

[[record]]
binder = "HCKC (antibody, human IgG1, V domains shown, human IgG1/kappa) VH: EVQLVESGGGLVQPGGSLRLSCAVSGFSLTIYGAHWVRQAPGKGLEWVSVIWAGGSTNYNSALMSRFTISKDNSKNTVYLQMNSLRAEDTAVYYCARDGSSPYYYSMEYWGQGTTVTVSS VL: EIILTQSPATLSLSPGERATLSCSATSSVSYMHWFQQKPGQAPRLLIYSTSNLASGIPARFSGSGSGTDFTLTISSLEPEDFAVYYCQQRSSYPFTFGPGTKLDIK"
experimental_result = 10.24

[[record]]
binder = "HAKE (antibody, human IgG1, V domains shown, human IgG1/kappa) VH: EVQLVESGGGLVQPGGSLRLSCAASGFSLTIYGAHWVRQAPGKGLEWVSVIWAGGSTNYNSALMSRFTISKDNSKNTVYLQMNSLRAEDTAVYYCARDGSSPYYYSMEYWGQGTTVTVSS VL: EIVLTQSPATLSLSPGERATLSCSATSSVSYMHWFQQKPGQAPRLLIYSTSNLASGVPARFSGSGSGTDFTLTISSLEPEDFAVYYCQQRSSYPFTFGPGTKLDIK"
experimental_result = 10.28

[[record]]
binder = "HCKG (antibody, human IgG1, V domains shown, human IgG1/kappa) VH: EVQLVESGGGLVQPGGSLRLSCAVSGFSLTIYGAHWVRQAPGKGLEWVSVIWAGGSTNYNSALMSRFTISKDNSKNTVYLQMNSLRAEDTAVYYCARDGSSPYYYSMEYWGQGTTVTVSS VL: EIVLTQSPATLSLSPGERATLSCSATSSVSYMHWYQQKPGQAPRLLIYSTSNLASGIPARFSGSGSGTDFTLTISSLEPEDFAVYYCQQRSSYPFTFGPGTKLDIK"
experimental_result = 9.56

[[record]]
binder = "RHE Triple-KD (antibody, human IgG1, V domains shown, human IgG1/kappa) VH: EVQLVESGGGLVQPGGSLRLSCAASGFSLTIYGAHWVRQAPGKGLEWVGVIWAGGSTNYNSALMSRFTISKDNSKNTVYLQMNSLRAEDTAVYYCARDGSSPYYYGMDVWGQGTTVTVSS VL: EIVLTQSPATLSLSPGERATLSCSATSSVSYMHWFQQKPGQAPRLWIYSTSNLASGIPARFSGSGSGTDFTLTISSLEPEDFAVYYCQQRSSYPFTFGPGTKLDIK"
experimental_result = 7.88

[[record]]
binder = "HCKFmut (antibody, human IgG1, V domains shown, human IgG1/kappa) VH: EVQLVESGGGLVQPGGSLRLSCAVSGFSLTIYGAHWVRQAPGKGLEWVSVIWAGGSTNYNSALMSRFTISKDNSKNTVYLQMNSLRAEDTAVYYCARDGSSPYYYSMEYWGQGTTVTVSS VL: EIVLTQSPATLSLSPGERATLSCSATSSVSYMHWFQQKPGQAPRLLIYSTSNLASGIPARFSGSGSGTDYTLTISSLEPEDFAVYYCQQRSSYPYTFGPGTKLDIK"
experimental_result = 10.11

